B1: Hairpin Ribozyme (parent)
chain: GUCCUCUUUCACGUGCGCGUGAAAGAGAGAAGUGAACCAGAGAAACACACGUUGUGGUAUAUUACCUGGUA

variants of: B1; experiment: self-cleavage, relative activity (ratio to wild type); higher = more cleavage; co-transcriptional
Provide the recorded self-cleavage for the entries that follow.
Enter a number only.

Query: Read the entry C37U U58A and write its reported self-cleavage.
Result: 0.48

Query: Using known records, supply self-cleavage for G34C A64U
Result: 0.442

Query: Let me know recorded self-cleavage for A31U G69A , thanks.
Result: 0.182

Query: Look up self-cleavage of G32C U58C and report it.
Result: 0.0937

Query: // fetch self-cleavage given entry A26G G34A
Result: 1.19

Query: Query self-cleavage for G17C U53C
Result: 0.826

Query: Report self-cleavage, nothing else, for this variant: A26G G42U
Result: 0.371

Query: Tell me self-cleavage reported for C10A A45U
Result: 0.121

Query: Give me measured self-cleavage, please, for this variant: U5G A41C
Result: 0.571

Query: Report measured self-cleavage; entry is G29C A44C
Result: 0.126

Query: Hello, please tell me recorded self-cleavage for this one: A22C A23U
Result: 0.932

Query: Look up and report measured self-cleavage for this entry: U9G A43U
Result: 0.111

Query: Return reported self-cleavage. Input variant: A11U G40C
Result: 0.178

Query: Output self-cleavage of G51U U62G
Result: 0.129

Query: State its self-cleavage: A30U G54U
Result: 0.165

Query: Determine its reported self-cleavage: U9A A30C
Result: 0.172

Query: Supply reported self-cleavage belonging to this variant: A26U U63G
Result: 0.158

Query: Tell us which self-cleavage value is on record for C4A G32A
Result: 0.195
